self-splicing fitness (ln) by entry:
measurement.description: self-splicing fitness, log relative to wild type (ln ratio); higher = more splicing; Tetrahymena group I intron in knt gene, E. coli kanamycin selection, DiMSum; sequences stand for … in CUCUCU…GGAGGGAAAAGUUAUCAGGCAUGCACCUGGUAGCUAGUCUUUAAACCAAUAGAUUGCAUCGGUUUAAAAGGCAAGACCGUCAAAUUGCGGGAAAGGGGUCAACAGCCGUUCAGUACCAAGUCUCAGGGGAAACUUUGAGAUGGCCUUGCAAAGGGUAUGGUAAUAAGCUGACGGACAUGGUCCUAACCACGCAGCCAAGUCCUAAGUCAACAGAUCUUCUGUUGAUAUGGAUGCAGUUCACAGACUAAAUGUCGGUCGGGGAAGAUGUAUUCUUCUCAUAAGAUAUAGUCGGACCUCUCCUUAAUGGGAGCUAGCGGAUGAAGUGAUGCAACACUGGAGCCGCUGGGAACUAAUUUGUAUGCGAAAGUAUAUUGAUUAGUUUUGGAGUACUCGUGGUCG;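 also: selection with 25 µg/mL kanamycin versus none on LB agar overnight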
condition.notes: 37 °C
Answer field: number only, no words.

>  <residue.sequence>
UCAAAGCAAUAUUACGAAGG

>  <self-splicing fitness (ln)>
-1.05

$$$$
>  <residue.sequence>
CAGAAGCAAUAUUACGGUAG

>  <self-splicing fitness (ln)>
-0.323

$$$$

Could you tell me which self-splicing fitness (ln) is on file for UGUCAGCAAUAUUACGAGUC ?
-2.78

// query self-splicing fitness (ln) value for entry ACGUAGCAAUAUUACGACUG
-0.836

Entry GGUCAGCAAUAUUACGCUAU has what self-splicing fitness (ln)?
-1.03

---

# self-splicing fitness (ln) per record follows
measurement.description: self-splicing fitness, log relative to wild type (ln ratio); higher = more splicing; Tetrahymena group I intron in knt gene, E. coli kanamycin selection, DiMSum; sequences stand for … in CUCUCU…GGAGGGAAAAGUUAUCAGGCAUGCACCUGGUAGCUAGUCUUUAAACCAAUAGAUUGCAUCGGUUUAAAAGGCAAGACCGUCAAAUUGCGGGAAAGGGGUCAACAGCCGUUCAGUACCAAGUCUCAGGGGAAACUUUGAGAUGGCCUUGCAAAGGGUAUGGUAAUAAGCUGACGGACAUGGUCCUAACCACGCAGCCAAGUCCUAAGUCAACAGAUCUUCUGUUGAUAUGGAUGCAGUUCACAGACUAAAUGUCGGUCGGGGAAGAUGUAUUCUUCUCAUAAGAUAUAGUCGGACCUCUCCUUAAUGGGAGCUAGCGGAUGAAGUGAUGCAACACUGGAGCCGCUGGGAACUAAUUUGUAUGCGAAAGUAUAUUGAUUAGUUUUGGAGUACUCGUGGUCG
condition.notes: 37 °C

Which self-splicing fitness (ln) is listed for AGCAAGCAAUAUUACGAAGG ?
-1.54

// returns reported self-splicing fitness (ln) for input CUGUAGCAAUAUUACGACAA
0.0313

Request the reported self-splicing fitness (ln) associated with GGUUAGCAAUAUUACGUUCU
-0.236

May I ask what self-splicing fitness (ln) has been recorded for UGAGAGCAAUAUUACGUCCA ?
-0.218

---

Entries and their measured self-splicing fitness (ln) follow.
measurement.description: self-splicing fitness, log relative to wild type (ln ratio); higher = more splicing; Tetrahymena group I intron in knt gene, E. coli kanamycin selection, DiMSum; sequences stand for … in CUCUCU…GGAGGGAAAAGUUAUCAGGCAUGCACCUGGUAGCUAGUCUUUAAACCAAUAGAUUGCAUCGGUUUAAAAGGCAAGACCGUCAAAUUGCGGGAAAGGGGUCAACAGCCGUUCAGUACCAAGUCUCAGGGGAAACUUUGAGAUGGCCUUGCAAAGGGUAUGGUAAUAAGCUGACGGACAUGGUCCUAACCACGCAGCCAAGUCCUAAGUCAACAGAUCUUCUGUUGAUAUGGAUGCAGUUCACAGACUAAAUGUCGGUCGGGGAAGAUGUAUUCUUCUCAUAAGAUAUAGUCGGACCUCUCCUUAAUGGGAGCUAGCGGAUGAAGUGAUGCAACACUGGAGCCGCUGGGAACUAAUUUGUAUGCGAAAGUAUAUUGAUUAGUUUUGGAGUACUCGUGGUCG
condition.notes: 30 °C
In your answer, state the number alone without any accompanying words.

>  <residue.sequence>
AUUUAGCAAUAUUACGCCGU

>  <quantity.name>
self-splicing fitness (ln)

>  <value.reported>
-1.2

$$$$
>  <residue.sequence>
UGCGAGCAAUAUUACGCGUC

>  <quantity.name>
self-splicing fitness (ln)

>  <value.reported>
-2.18

$$$$
>  <residue.sequence>
GUCCAGCAAUAUUACGUGGA

>  <quantity.name>
self-splicing fitness (ln)

>  <value.reported>
-3.34

$$$$
>  <residue.sequence>
GCCAAGCAAUAUUACGCCUA

>  <quantity.name>
self-splicing fitness (ln)

>  <value.reported>
-0.609

$$$$
>  <residue.sequence>
UUGCAGCAAUAUUACGACAC

>  <quantity.name>
self-splicing fitness (ln)

>  <value.reported>
-1.37

$$$$
>  <residue.sequence>
GUCAAGCAAUAUUACGGAAG

>  <quantity.name>
self-splicing fitness (ln)

>  <value.reported>
-3.05

$$$$
>  <residue.sequence>
CUUGAGCAAUAUUACGAUGG

>  <quantity.name>
self-splicing fitness (ln)

>  <value.reported>
-2.94

$$$$

Now take the following sequence into account.
Any idea what its self-splicing fitness (ln) is? The sequence is AUAAAGCAAUAUUACGUGCC
-0.00478

# credit: the supplement of paper PMC7877785
